Values from patent US6914045B2

# Tested on: Staphylococcus sp.
# assay-protocol: in vitro antibacterial evaluation, MIC by broth dilution
# Type: cell-based
# assay-context: broth dilution, 18 hours at 35° C.; strain GC 4541
Numbered stars: 1 amine (or outer) side, 2 acyl side, 3 side chain; on linkers, the order of the positions; unused ones are H or OH. Square brackets hold non-standard residues; d marks the D form. Peptide text beside a SMILES is read from it. ξ: configuration not given here. X1 = N=C1NCC(C(O)C(N[*:1])C(=O)[*:2])N1C1OC(CO)C(O)C(O)C1O; ξEnduracididine(βξ-OH,4'ξ) = N=C1NCC(C(O)C(N)C(=O)O)N1
property-label: MIC Staphylococcus aureus (GC 4541)

Illustrative cases are given below, each with its answer.
[[record]]
compound = "CC(c1ccccc1)C1NC(=O)CNC(=O)C(CO)NC(=O)C(C(O)C2CNC(=N)N2C2OC(CO)C(O)C(O)C2O)NC(=O)C(C(O)C2CNC(=N)N2)NC(=O)C(Cc2ccc(OC3OC(CO)C(OC4OC5COC(c6ccc7c(c6)OCO7)OC5C(O)C4O)C(O)C3O)cc2)NC1=O (stereo not shown)"
test_result = "2 to 4 µg/mL"

[[record]]
compound = "CCC(C)C(=O)OC1C(CO)OC(OC2C(CO)OC(Oc3ccc(CC4NC(=O)C(C(C)c5ccccc5)NC(=O)CNC(=O)C(CO)NC(=O)C(C(O)C5CNC(=N)N5C5OC(CO)C(O)C(O)C5O)NC(=O)C(C(O)C5CNC(=N)N5)NC4=O)cc3)C(O)C2O)C(O)C1O (stereo not shown) [Example 278c]"
test_result = "4 µg/mL"

[[record]]
compound = "N=C1NCC(C(O)C2NC(=O)C(Cc3ccc(O)cc3)NC(=O)C(Cc3ccccc3)NC(=O)CNC(=O)C(CO)NC(=O)C(C(O)C3CNC(=N)N3C3OC(CO)C(O)C(O)C3O)NC2=O)N1 (stereo not drawn) [Example 279a] (cyclo(GFY[ξEnduracididine(βξ-OH,4'ξ)][X1]S); configuration not given here)"
test_result = ">64 µg/mL"


Lab note: next compound to report on.
Query: Assign MIC Staphylococcus aureus (GC 4541) to the following record: CC(c1ccccc1)C1NC(=O)CNC(=O)C(CO)NC(=O)C(C(O)C2CNC(=N)N2C2OC(CO)C(O)C(O)C2O)NC(=O)C(C(O)C2CNC(=N)N2)NC(=O)C(Cc2ccc(OC3OC(CO)C(OC4OC5COC(CC6CCN(C(=O)OCc7ccccc7)CC6)OC5C(O)C4O)C(O)C3O)cc2)NC1=O (stereo not shown)
Response: 1 µg/mL
